test system: HOP-62; experiment: NCI tumour cell line growth inhibition, 48 h
The source made the active and inactive calls. Rule as the data show it: active = GI50 up to about 1.1 µM and inactive = higher. Where a SMILES comes first, the peptide text is derived from it. The star is where a group is joined. Boc = CC(C)(C)OC(=O)*
Pick one and only one: 1.0 = active, 0.0 = inactive

Some entries whose results are on file:
Call for entry NC(C(=O)O)c1ccc(C(=O)O)cc1 (centres undefined) : 0.0

Hi, sorry to bother you, what did the test record for CCCCCCCC(=O)OCC1OC(n2cc(F)c(=O)[nH]c2=O)C(NC(=O)OCc2ccccc2)C(OC(=O)CCCCCCC)C1O (centres undefined) ? 0.0

Hey, what did the test say about "C#CCN(Cc1ccc2nc(-c3ccccc3)c(Cl)nc2c1)c1cc(OC)c(OC)c(OC)c1" ? 0.0

So what was the verdict on "CC(C)OP(=O)(CN(C)/C(F)=N\C(F)(F)F)OC(C)C" in this test? 0.0

Status in this test for COC(=O)[C@H](Cc1ccc(O)cc1)NC(=O)[C@H](Cc1ccc(O)cc1)NC(=O)OC(C)(C)C (Boc-Tyr-Tyr-OMe) ? 0.0

Others:
Could you please tell me the result logged for "Cc1c(/C=N/N=C/c2[nH]c(C(=O)OC(C)(C)C)c(C)c2C)[nH]c(C(=O)OC(C)(C)C)c1C" in this assay? 0.0

Per the assay record, what outcome was assigned to "CCOC(=O)/C(=C/c1ccc[nH]1)P(=O)(OCC)OCC" ? 0.0

I'd appreciate the recorded outcome for COC(=O)C1(Cc2ccc3c(c2)CCC3)Cc2cc3c(cc2C1=O)CCC3 (centres undefined) from this test. 0.0

Recorded call for O=C1c2ccccc2C(=O)N1CC1(C(=O)O)NCCS1(=O)=O (centres undefined) ? 0.0

# lookup: test call for COc1ccc(C(C2C(=O)N(C)C(=O)N(C)C2=O)C(F)(F)C(=O)N(C)C)cc1 (centres undefined) 0.0

====

test system: SF-539; experiment: NCI tumour cell line growth inhibition, 48 h
Calls of active or inactive are those of the source. Cut-off read from the data, not from the text of the source: active = GI50 up to about 1.1 µM and inactive = higher.
# key: entry, value: GI50

Solved entries:
Look up GI50 with SF-539 for this molecule: "NCCn1ccc(NC(c2ccccc2)(c2ccccc2)c2ccccc2)nc1=O" 17 µM (inactive)

For SF-539, provide GI50 of Nc1nc(Cl)c(C=O)c(NCC2(CO)CC(CCc3ccccc3)C2)n1 (stereo unspecified) please. 12.4 µM (inactive)

Write down the reported GI50 of C=C1COC(/C=C(\C)CC/C=C(\C)CCl)C1 (stereo unspecified) , test system: SF-539. > 100 µM (inactive)

Value wanted: GI50 (SF-539) of entry CN(C)CC1CCCC1=O (stereo unspecified) 7.89 µM (inactive)

SF-539 / GI50 / "C(=C\Nc1ccc(Oc2ccccc2)cc1)/C=N/c1ccc(Oc2ccccc2)cc1" : value? 16.4 µM (inactive)

// below: GI50 requested for another molecule
Param readout= GI50; system= SF-539; entry= COC(=O)C(CC(=O)Nc1ccc(Cl)c(Cl)c1)C(=O)C(=O)NC1C2CC3CC(C2)CC1C3 (stereo unspecified) ; returns value. > 100 µM (inactive)

====

test system: SN12C; assay: NCI tumour cell line growth inhibition, 48 h
Active and inactive are the calls of the source. Cut-off read from the data, not from the text of the source: active = GI50 up to about 1.1 µM and inactive = higher.
As shown below, each of these molecules has a reported GI50 value.

Which GI50 reading was recorded for the molecule "Cc1c(/C=N/N=C/c2[nH]c(C(=O)OC(C)(C)C)c(C)c2C)[nH]c(C(=O)OC(C)(C)C)c1C" ? > 100 µM (inactive)

Data request, read-out GI50, for "CC1=NN2C(=N)/C(=C/c3ccc(F)cc3)C(=O)N=C2S1" > 100 µM (inactive)

Others:
Endpoint output: GI50 of "C[n+]1c(-c2ccc(/C=N/Nc3ccnc(N/N=C/c4ccc(-c5cn6ccccc6[n+]5C)cc4)n3)cc2)cn2ccccc21" . Value? > 100 µM (inactive)

Returns the measured GI50 for the input molecule. Input: CCOC(=O)C(NC(=O)NCc1ccc(F)cc1)C(F)(F)F (stereo not given) > 100 µM (inactive)

Request the reported GI50 associated with O=C1c2ccccc2C(=O)c2c1ccc(O)c2O [ATHRAQUINONES A] 42.3 µM (inactive)

Which GI50 value belongs to CCC1CCC2C3CC=C4CC(OC(C)=O)C(N)CC4(C)C3CCC12C (stereo not given) ? 5.3 µM (inactive)

Param item = "COC(=O)c1ccc(NC(=O)c2cc(OC)c(OC)c(OC)c2)cc1" ; retrieve measured GI50. 1.85 µM (inactive)

Find the recorded GI50 belonging to CC1(c2nc3ccccc3[nH]2)CCC(C#N)C(C)(C)O1 (stereo not given) and report it. > 100 µM (inactive)

Given the molecule CC(C)(O)C1CC[C@]2(C)CC[C@]3(C)[C@H](CC[C@@H]4[C@@]5(C)CC[C@H](O)C(C)(C)[C@@H]5CC[C@]43C)[C@@H]12 (stereo not given in full) , what is its reported GI50? 81.3 µM (inactive)

Sample "CC(C)=CCC[C@@H](C)C1=C(Nc2ccccc2F)C(=O)C(C)=C(O)C1=O" — what was its GI50? 6.97 µM (inactive)

====

Collected GI50 values appear next to each entry.
tested on: TK-10; assay: NCI tumour cell line growth inhibition, 48 h
Activity calls are given as the source filed them. No stated cut-off is given here; in the data, active = GI50 up to about 1.1 µM and inactive = higher.

Use the examples below as a reference point.
Returns the measured GI50 for the input molecule. Input: "CC(C)Oc1cccc(N2C(n3ccnc3)=Nc3ccncc3S2(=O)=O)c1" 12.1 µM (inactive)

State the recorded GI50 for this entry: "N#Cc1sc2c(c1OC(=O)c1ccc(Cl)cc1)c(=O)n(-c1ccccc1)c(=S)n2-c1ccccc1" 23.3 µM (inactive)

Consider the molecule "CCN(CC)CCOc1ccc(N2C(=O)c3cccc4cc([N+](=O)[O-])cc(c34)C2=O)cc1" and give its measured GI50. 13.3 µM (inactive)

Entry under review: O=C(O)CC(Cc1ccccc1Cl)C(=O)O (stereo not given) . Reported GI50? > 100 µM (inactive)

In the following, a different molecule is considered.
Endpoint output: GI50 of N#CC1(c2nc3ccccc3o2)C(=O)C(=O)N(C2C3CC4CC(C3)CC2C4)C(=O)C1=O (stereo not given) . Value? > 100 µM (inactive)

====

tested on: NCI-H226; test: NCI tumour cell line growth inhibition, 48 h
The source made the active and inactive calls. Cut-off read from the data, not from the text of the source: active = GI50 up to about 1.1 µM and inactive = higher.
endpoint.label: GI50

Recorded GI50 of Cc1cc(OP2(=O)NCc3ccncc3O2)ccc1Cl (configuration not stated) , please. > 100 µM (inactive)

# query: GI50 of entry "O=C(NNS(=O)(=O)c1ccccc1)c1cccnc1" > 100 µM (inactive)

What value of measured GI50 is listed for "COC(=O)c1cc2c(s1)C(=O)c1ccccc1-2" ? > 100 µM (inactive)

Quick one: GI50 for "O=[PH](O)c1ccccn1" ? > 100 µM (inactive)

Field request: GI50 | item: "O=C1/C(=C/c2ccc(Oc3ccccc3)cc2)N=C(c2ccccc2)N1c1ccc(S(=O)(=O)Nc2nccs2)cc1" 33.4 µM (inactive)

---
Please give the measured GI50 for this compound: "O=C(NC1=C(Cl)C(=O)c2ccccc2C1=O)c1ccccc1" 24.5 µM (inactive)

# query: GI50 of entry CC(C)Cc1ccc(C(C)/C=C2\CCC(CN(C)C)C2=O)cc1 (configuration not stated) 20.2 µM (inactive)

Quick one: GI50 for C[C@@]1(Cc2ccccc2)C(=O)N2[C@@H](CO)C(c3ccccc3)O[C@]2(C)c2ccccc21 (some centres not stated) ? > 100 µM (inactive)

Reported GI50 for "CN(C)CCNc1ccc2nnn3c4ccccc4c(=O)c1c23" : what is it? 1.74 µM (inactive)

Dear colleague, I am looking for the recorded GI50 of the following compound: "O=S1(=O)CS(=O)(=O)OCCO1" 41.4 µM (inactive)

Param item = CCC1NC(=O)C1NC(=O)OC (configuration not stated) ; retrieve measured GI50. > 100 µM (inactive)

State the recorded GI50 for this entry: O=[N+]([O-])c1cccnc1NCC1(CO)CC(Cc2ccccc2)C1 (configuration not stated) 80.4 µM (inactive)

====

Entries annotated with measured GI50
tested on: A549; assay: NCI tumour cell line growth inhibition, 48 h
Calls of active or inactive are those of the source. Cut-off read from the data, not from the text of the source: active = GI50 up to about 1.1 µM and inactive = higher. Non-standard residues stand in square brackets, D forms with d. Residues, ends and D or L forms follow the SMILES beside them. *: point of attachment. Cbz = O=C(OCc1ccccc1)*; Boc = CC(C)(C)OC(=O)*; Aib = CC(C)(N)C(=O)O; OBn = c1ccc(CO*)cc1; OtBu = CC(C)(C)O*; βAla = NCCC(=O)O

Would you please look over these solved cases?
Field request: GI50 | item: COc1ccc2c(c1)OCCC1=C2SCC2(C)CCN=C12 (centres undefined) > 100 µM (inactive)

Sample CC(C)(C)OC(=O)CC(NC(=O)OC(C)(C)C)C(=O)NC(CCCCNC(=O)OCc1ccccc1)C(=O)NC(C)(C)C(=O)NCCC(=O)OCc1ccccc1 (centres undefined) (Boc-D(OtBu)K(Cbz)[Aib][βAla]-OBn; configuration not given here) — what was its GI50? > 100 µM (inactive)

Further cases:
Entry "CC(C)Oc1cccc(N2C(n3ccnc3)=Nc3ccncc3S2(=O)=O)c1" : reported GI50 = ? 20.4 µM (inactive)

Endpoint output: GI50 of "CCN(CC)c1ccc(/C=C2/C[N+](C)(C)C/C(=C/c3ccc(N(CC)CC)cc3)C2=O)cc1" . Value? 4.92 µM (inactive)

Every entry's value here was drawn from ChEMBL document CHEMBL1201862.
